- assayed.target: T1, HSP70 (human HSP70; the antigen of the binning, humanization and variant binding assays) (human, UniProt P0DMV8 1-641, limits assumed)
- T1 construct: also called hu HSP70
- T1 sequence (P0DMV8 whole entry, change not shown): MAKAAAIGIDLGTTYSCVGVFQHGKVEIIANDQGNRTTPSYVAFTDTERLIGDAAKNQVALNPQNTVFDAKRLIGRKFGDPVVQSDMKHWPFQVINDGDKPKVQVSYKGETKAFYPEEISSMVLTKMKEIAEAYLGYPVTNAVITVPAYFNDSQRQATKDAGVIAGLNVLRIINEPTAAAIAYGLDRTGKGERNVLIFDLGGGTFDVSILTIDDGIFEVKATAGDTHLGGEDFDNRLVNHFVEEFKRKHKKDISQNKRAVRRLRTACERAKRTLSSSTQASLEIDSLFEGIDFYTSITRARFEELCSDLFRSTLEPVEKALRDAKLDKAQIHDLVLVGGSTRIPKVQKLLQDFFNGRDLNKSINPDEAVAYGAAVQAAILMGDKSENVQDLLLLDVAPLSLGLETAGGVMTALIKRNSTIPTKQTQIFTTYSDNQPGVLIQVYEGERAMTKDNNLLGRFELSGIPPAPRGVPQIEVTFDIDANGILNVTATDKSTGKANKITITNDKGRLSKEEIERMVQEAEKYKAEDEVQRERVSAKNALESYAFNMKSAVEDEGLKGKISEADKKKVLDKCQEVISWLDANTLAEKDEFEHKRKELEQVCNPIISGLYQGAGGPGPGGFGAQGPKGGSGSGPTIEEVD
- test.description: BLI, anti-human Fc capture, antigen dilution series, 1:1 fit
The entries below come with measured kon values attached.
Respond numerically; units are M⁻¹ s⁻¹ and should not be typed.

Record excerpt, results attached:
binder: h77A-1.94 (antibody, V domains shown, captured by anti-human Fc) VH: QIQLVQSGAEVKKPGASVKVSCKASGYTFTNYGMNWVRQAPGQGLEWMGWINTYTGEPTYTDDFKGRFTFTTDTSTSTAYMELRSLRSDDTAVYFCARYDHAMDYWGQGTLVTVSS VL: EIVLTQSPDSLAVSLGERATINCKSSQSLFNSGTRKNYLAWYQQKAGQSPKLIIYWTSTRESGVPDRFSASGSGTDFTLSIDRLQAEDVAVYYCKQSYTLYTFGGGTKVEIK
kon [M⁻¹ s⁻¹]: 59900
//
binder: h77A-1 (antibody, V domains shown, also called hVH-1 + hVL-1) VH: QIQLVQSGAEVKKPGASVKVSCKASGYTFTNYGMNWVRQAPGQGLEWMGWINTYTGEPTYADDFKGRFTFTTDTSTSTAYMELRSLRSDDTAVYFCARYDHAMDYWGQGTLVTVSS VL: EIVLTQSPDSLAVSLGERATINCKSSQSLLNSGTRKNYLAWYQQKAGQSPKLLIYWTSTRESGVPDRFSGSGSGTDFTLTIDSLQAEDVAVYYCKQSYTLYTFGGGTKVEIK
kon [M⁻¹ s⁻¹]: 54700

Record h77A-1.1 (antibody, V domains shown, captured by anti-human Fc) VH: QIQLVQSGAEVKKPGASVKVSCKASGYTFTKYGMNWVRQAPGQGLEWMGWINTYTGEPTYADDFKGRFTFTTDTSTSTAYMELRSLRSDDTAVYFCARYDHAMDYWGQGTLVTVSS VL: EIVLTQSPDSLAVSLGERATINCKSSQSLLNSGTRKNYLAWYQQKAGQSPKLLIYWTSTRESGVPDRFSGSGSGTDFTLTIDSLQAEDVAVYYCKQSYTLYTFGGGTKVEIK . Reported kon: 88500

Values from patent US20250084155A1
